Measured on: purified HLA-A11 molecules (human)
Assay method text: inhibition of binding of a labeled reference peptide to purified HLA-A11
Metric: pIC50
Answers are plain numbers, as −log10 of the molar value.

pIC50 reading for TVYYGVPVWK (modifications not checked) [HIV Env 49 (HIV env 49-58) CTL epitope peptide …] : 8.40

These data points were gathered from patent US20030203869A1.
